The reported measurements were obtained from paper PMC4556830.

Entries and their AUC(0–∞)
# PROTOCOL_NOTES: Pharmacokinetics of six cocktail probe drugs in rat plasma (UPLC-MS/MS) after 7-day MGCD0103 or saline
# EXPERIMENTAL_SETUP: Low group: MGCD0103 20 mg/kg i.g. 7 days, then probe 10 mg/kg (tolbutamide 1 mg/kg) i.g.; rat plasma; mean ± SD, n = 10
I only need the number, in ng/mL∗h, no unit after it.

COMPOUND: CCOc1ccc(NC(C)=O)cc1
EXPERIMENTAL_VALUE: 2975.9

COMPOUND: COc1ccc2[nH]c([S+]([O-])Cc3ncc(C)c(OC)c3C)nc2c1 (stereo not drawn)
EXPERIMENTAL_VALUE: 704.9

COMPOUND: C[C@]12CC[C@H]3[C@@H](CCC4=CC(=O)CC[C@@]43C)[C@@H]1CC[C@@H]2O
EXPERIMENTAL_VALUE: 417.2

COMPOUND: CCCCNC(=O)NS(=O)(=O)c1ccc(C)cc1 [Tolbutamide]
EXPERIMENTAL_VALUE: 83176.9

COMPOUND: CC(NC(C)(C)C)C(=O)c1cccc(Cl)c1 (stereo not drawn)
EXPERIMENTAL_VALUE: 324.2

Now for another entry.
Exam item: // lookup AUC(0–∞) for COCCc1ccc(OCC(O)CNC(C)C)cc1 (stereo not drawn)
Marked response: 703.8

====

# PROTOCOL_NOTES: Pharmacokinetics of six cocktail probe drugs in rat plasma (UPLC-MS/MS) after 7-day MGCD0103 or saline
# EXPERIMENTAL_SETUP: High group: MGCD0103 80 mg/kg i.g. 7 days, then probe 10 mg/kg (tolbutamide 1 mg/kg) i.g.; rat plasma; mean ± SD, n = 10
QUANTITY_NAME: AUC(0–t) (ng/mL∗h)
The reply should be a number in ng/mL∗h, with the unit left off.

Example entries begin here.
COMPOUND: COCCc1ccc(OCC(O)CNC(C)C)cc1 (stereo not drawn)
EXPERIMENTAL_VALUE: 1031.8
--
COMPOUND: COc1ccc2[nH]c([S+]([O-])Cc3ncc(C)c(OC)c3C)nc2c1 (stereo not drawn)
EXPERIMENTAL_VALUE: 676.8
--
COMPOUND: C[C@]12CC[C@H]3[C@@H](CCC4=CC(=O)CC[C@@]43C)[C@@H]1CC[C@@H]2O
EXPERIMENTAL_VALUE: 490.7
--
COMPOUND: CCOc1ccc(NC(C)=O)cc1
EXPERIMENTAL_VALUE: 2869.8

Exam item: For CC(NC(C)(C)C)C(=O)c1cccc(Cl)c1 (stereo not drawn) , what is its reported AUC(0–t)?
Marked response: 218.2

====

Documented AUC(0–t) across a set of compounds
# PROTOCOL_NOTES: Pharmacokinetics of six cocktail probe drugs in rat plasma (UPLC-MS/MS) after 7-day MGCD0103 or saline
# EXPERIMENTAL_SETUP: Medium group: MGCD0103 40 mg/kg i.g. 7 days, then probe 10 mg/kg (tolbutamide 1 mg/kg) i.g.; rat plasma; mean ± SD, n = 10
Write it as a number; the unit ng/mL∗h goes unstated.

COMPOUND: C[C@]12CC[C@H]3[C@@H](CCC4=CC(=O)CC[C@@]43C)[C@@H]1CC[C@@H]2O
AUC(0–t) / ng/mL∗h: 81.3

COMPOUND: CCOc1ccc(NC(C)=O)cc1
AUC(0–t) / ng/mL∗h: 2910.1

COMPOUND: CC(NC(C)(C)C)C(=O)c1cccc(Cl)c1 (stereo not drawn)
AUC(0–t) / ng/mL∗h: 120.4

COMPOUND: CCCCNC(=O)NS(=O)(=O)c1ccc(C)cc1 [Tolbutamide]
AUC(0–t) / ng/mL∗h: 72448.6

COMPOUND: COCCc1ccc(OCC(O)CNC(C)C)cc1 (stereo not drawn)
AUC(0–t) / ng/mL∗h: 836.1

Would you kindly look at the next entry?
Exam item: Given the entry COc1ccc2[nH]c([S+]([O-])Cc3ncc(C)c(OC)c3C)nc2c1 (stereo not drawn) , report its measured AUC(0–t).
Marked response: 526.1

====

# PROTOCOL_NOTES: Pharmacokinetics of six cocktail probe drugs in rat plasma (UPLC-MS/MS) after 7-day MGCD0103 or saline
# EXPERIMENTAL_SETUP: Sprague-Dawley, rat, plasma, po, 10 mg/kg, t 1/2, Control group: saline i.g. 7 days (no MGCD0103), then probe 10 mg/kg (tolbutamide 1 mg/kg) i.g.; rat plasma; mean ± SD, n = 10
QUANTITY_NAME: half-life (h)
Number only, in h; omit the unit.

Exam item: Query (molecule): COc1ccc2[nH]c([S+]([O-])Cc3ncc(C)c(OC)c3C)nc2c1 (stereo not shown) [Omeprazole] ; field requested: half-life
Marked response: 1.4

====

# PROTOCOL_NOTES: Pharmacokinetics of six cocktail probe drugs in rat plasma (UPLC-MS/MS) after 7-day MGCD0103 or saline
# EXPERIMENTAL_SETUP: High group: MGCD0103 80 mg/kg i.g. 7 days, then probe 10 mg/kg (tolbutamide 1 mg/kg) i.g.; rat plasma; mean ± SD, n = 10
Each entry below carries its recorded AUC(0–∞).

Check out these entries, answers already filled in.
COMPOUND: CCCCNC(=O)NS(=O)(=O)c1ccc(C)cc1 [Tolbutamide]
AUC(0–∞): 64353.2 ± 15998.9^∗ ng/mL∗h

COMPOUND: CCOc1ccc(NC(C)=O)cc1
AUC(0–∞): 2871.9 ± 3189.0 ng/mL∗h

COMPOUND: COCCc1ccc(OCC(O)CNC(C)C)cc1 (stereo not shown)
AUC(0–∞): 1046.4 ± 1258.4 ng/mL∗h

Exam item: Tell me the measured AUC(0–∞) of `C[C@]12CC[C@H]3[C@@H](CCC4=CC(=O)CC[C@@]43C)[C@@H]1CC[C@@H]2O` , please.
Marked response: 524.5 ± 1042.4 ng/mL∗h
